Data origin: paper PMC3401626

Molecular target: Eis (Mycobacterium tuberculosis, UniProt P9WFK7)
Sequence (P9WFK7 whole entry): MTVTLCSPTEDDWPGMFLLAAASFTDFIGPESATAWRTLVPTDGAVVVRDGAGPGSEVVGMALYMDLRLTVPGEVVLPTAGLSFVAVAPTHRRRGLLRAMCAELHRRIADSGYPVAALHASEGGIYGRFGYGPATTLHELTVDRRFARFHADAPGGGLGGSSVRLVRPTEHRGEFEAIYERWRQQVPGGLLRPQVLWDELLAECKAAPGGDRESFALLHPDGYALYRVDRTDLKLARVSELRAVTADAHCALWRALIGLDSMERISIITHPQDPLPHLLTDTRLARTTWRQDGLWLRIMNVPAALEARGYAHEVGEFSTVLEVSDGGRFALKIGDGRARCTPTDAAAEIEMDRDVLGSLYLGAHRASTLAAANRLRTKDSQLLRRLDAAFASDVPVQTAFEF
Assay: Eis inhibition, UV-Vis DTNB assay of aminoglycoside acetylation
Assay type: biochemical
Conditions: Eis inhibition constants (IC50) using AMK, substrate AMK; at least 3 trials
property label: IC50 (µM)
One number for each entry, in µM.

Give the reported IC50 for this molecule. `[H]/N=C(\N/C(=N/[H])NCCCCCCNC(=N)NC(=N)Nc1ccc(Cl)cc1)Nc1ccc(Cl)cc1`
0.321

====

Biological target: Eis (Mycobacterium tuberculosis)
Test: Eis inhibition, UV-Vis DTNB assay of aminoglycoside acetylation
Format: biochemical
Conditions: Eis inhibition constants (IC50) using KAN, substrate KAN; at least 3 trials
property label: IC50 (nM)
Numbers only, in nM.

Entry `[H]/N=C(\N/C(=N/[H])NCCCCCCNC(=N)NC(=N)Nc1ccc(Cl)cc1)Nc1ccc(Cl)cc1` needs its IC50 filled in; supply it.
666
